- Experimental System: T1, HLA-B*35:01 (human)
- T1 construct: whole, on cells; MHC class I on a monoallelic cell line
- Assay Text: HLA-I IP (W6/32) and targeted MS of monoallelic HMy2.C1R cells expressing the polyantigen cassette
Attribute Measured: binding result

      binder  recorded_result
0  PIIIGHHAY            binds
1   IIIGHHAY            binds
2   IIIGGHAY            binds
3  MPFGSLLDY            binds

Next, consider the following binder.
Req: Hello, please tell me recorded binding result for this one: VKPIIIGHHAY
Resp: binds
